Tested on: DU-145
Experiment: Growth inhibition of human DU145 cells after 96 hrs by trypan blue exclusion assay
Type: functional
Settings: DU-145, 96 h
The following compounds are shown together with reported GI50 values.
recorded_metric: GI50 (µM)

# structure, relational_operator, readout_number
rows = [
    ("Cc1ccc(S(=O)(=O)/C(=C/c2ccccc2OCc2ccccc2)C(=O)c2ccc(Br)cc2)cc1", "=", 1),
    ("Cc1ccc(CS(=O)(=O)/C(=C/c2ccccc2Br)C(=O)c2ccc(Cl)cc2)cc1", "=", 25),
    ("O=C(/C(=C\\c1ccc(Br)cc1)SCc1ccc(Cl)cc1)c1ccc(Cl)cc1", "=", 1),
    ("O=C(O)c1ccc(/C=C(/SCc2ccc(Cl)cc2)C(=O)c2ccc(C(=O)O)cc2)cc1", ">", 100),
    ("CSc1ccc(/C=C(\\C(=O)c2ccc(Br)cc2)S(=O)(=O)Cc2ccc(F)cc2)cc1", "=", 50),
    ("O=C(/C(=C\\c1ccc(F)cc1F)Sc1ccc(Br)cc1)c1ccc(Br)cc1", "=", 1),
    ("CC(=O)Oc1ccc(/C=C(\\C(=O)c2ccc(Cl)cc2)S(=O)(=O)c2ccc(C)cc2)cc1", "=", 25),
    ("Nc1c(Br)cc(Br)cc1/C=C(/Sc1ccc(Br)cc1)C(=O)c1ccc(Br)cc1", ">", 100),
    ("COc1cc(C(=O)/C(=C\\c2ccc([N+](=O)[O-])c(O)c2)SCc2ccc(Br)cc2)cc(OC)c1OC", "=", 1),
    ("O=C(/C(=C\\c1ccccc1F)S(=O)(=O)c1ccc(Br)cc1)c1ccc(Cl)cc1", "=", 25),
    ("COc1ccccc1/C=C(/Sc1ccc(C)cc1)C(=O)c1ccc(Br)cc1", "=", 9),
    ("Cc1ccc(S/C(=C/c2cc([N+](=O)[O-])ccc2F)C(=O)c2ccc(Cl)cc2)cc1", "=", 10),
    ("Cc1ccc(CS/C(=C/c2ccc(N(C)C)cc2)C(=O)c2ccc(Cl)cc2)cc1", ">", 100),
    ("O=C(O)c1ccc(C(=O)/C(=C\\c2ccc(Br)c([N+](=O)[O-])c2)SCc2ccccc2Cl)cc1", "=", 1),
    ("O=C(/C(=C\\c1ccc([N+](=O)[O-])c(O)c1)SCc1ccc(Br)cc1)c1ccc([N+](=O)[O-])cc1", "=", 1),
    ("O=C(/C(=C\\c1ccc(O)cc1)S(=O)(=O)Cc1ccc(F)cc1)c1ccc(Br)cc1", "=", 10),
    ("COc1ccccc1/C=C(\\C(=O)c1ccc(Cl)cc1)S(=O)(=O)Cc1ccc(Cl)c(Cl)c1", "=", 1),
    ("Cc1ccc(S(=O)(=O)/C(=C/c2c[nH]c3ccccc23)C(=O)c2ccc(Br)cc2)cc1", "=", 10),
    ("O=C(/C(=C\\c1ccc(O)cc1O)SCc1cccc(Cl)c1)c1ccc(Br)cc1", "=", 50),
    ("Cc1ccc(S(=O)(=O)/C(=C/c2ccc(C)s2)C(=O)c2ccc(Cl)cc2)cc1", "=", 50),
    ("O=C(/C(=C\\c1ccc(O)cc1O)Sc1ccccc1Br)c1ccc(Cl)cc1", "=", 50),
    ("Cc1ccc(/C=C(/Sc2ccc(F)cc2)C(=O)c2ccc(Cl)cc2)s1", "=", 25),
    ("CN(C)c1ccc(/C=C(/Sc2ccccc2Br)C(=O)c2ccc(Br)cc2)cc1", ">", 100),
    ("Cc1ccc(CS(=O)(=O)/C(=C/c2cccc(Cl)c2Cl)C(=O)c2ccc(Cl)cc2)cc1", "=", 1),
    ("COc1ccc(S/C(=C/c2ccccc2OCc2ccccc2)C(=O)c2ccc(Cl)cc2)cc1", "=", 1),
    ("Cc1ccc(CS/C(=C/c2cc([N+](=O)[O-])ccc2F)C(=O)c2ccc(Cl)cc2)cc1", "=", 1),
    ("CN1CCN(c2ccc(/C=C(/SCc3ccc(Br)cc3)C(=O)c3ccc(C(=O)O)cc3)cc2[N+](=O)[O-])CC1", "=", 10),
    ("COc1ccc(S(=O)(=O)/C(=C/c2ccc(Br)cc2)C(=O)c2ccc(Br)cc2)cc1", "=", 6),
    ("Cc1ccc(/C=C(\\C(=O)c2ccc(Cl)cc2)S(=O)(=O)Cc2ccc(Cl)cc2Cl)s1", "=", 10),
    ("COc1ccc(S(=O)(=O)/C(=C/c2ccc(C)s2)C(=O)c2ccc(Cl)cc2)cc1", "=", 25),
    ("COc1ccccc1/C=C(\\C(=O)c1ccc(Br)cc1)S(=O)(=O)Cc1ccc(F)cc1", "=", 25),
    ("O=C(O)c1ccc(C(=O)/C(=C\\c2ccc(Br)c([N+](=O)[O-])c2)SCc2ccc(Cl)cc2)cc1", "<", 1),
    ("O=C(/C(=C\\c1c[nH]c2ccc(Cl)cc12)SCc1ccc(F)cc1)c1ccc(Br)cc1", "=", 1),
    ("Cc1ccc(S(=O)(=O)/C(=C/c2ccccc2F)C(=O)c2ccc(Cl)cc2)cc1", "=", 2.5),
    ("O=C(O)c1ccc(C(=O)/C(=C\\c2ccc(F)c([N+](=O)[O-])c2)SCc2ccc(C(F)(F)F)cc2)cc1", "=", 1),
    ("Cc1ccsc1/C=C(\\C(=O)c1ccc(Cl)cc1)S(=O)(=O)Cc1ccc(F)cc1", "=", 10),
    ("O=C(/C(=C\\c1ccc(Cl)cc1)SCc1ccc(Cl)cc1)c1ccc(Br)cc1", "=", 10),
]
